Target: D2 receptor (Homo sapiens, UniProt P14416)
Sequence (P14416 whole entry): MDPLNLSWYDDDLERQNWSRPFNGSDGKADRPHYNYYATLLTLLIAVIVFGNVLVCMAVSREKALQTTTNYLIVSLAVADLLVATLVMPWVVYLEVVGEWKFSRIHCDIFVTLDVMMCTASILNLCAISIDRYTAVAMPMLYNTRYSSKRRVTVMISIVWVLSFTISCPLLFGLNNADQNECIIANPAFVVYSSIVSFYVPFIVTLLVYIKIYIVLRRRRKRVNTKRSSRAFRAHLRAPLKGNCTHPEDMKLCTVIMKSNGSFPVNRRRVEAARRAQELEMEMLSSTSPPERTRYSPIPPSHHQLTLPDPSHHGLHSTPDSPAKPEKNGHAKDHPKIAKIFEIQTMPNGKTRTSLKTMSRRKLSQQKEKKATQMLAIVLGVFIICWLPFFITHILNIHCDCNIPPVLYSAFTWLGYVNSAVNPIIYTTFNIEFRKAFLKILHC
Experiment: [3H]Thymidine uptake assay for D2 intrinsic activity
Assay type: cell-based
Conditions: Table 2; test compound 1 μM; 1 μM Quinpirole = 100% intrinsic activity
reported property: Emax at 1 µM (%)

Example compounds with recorded Emax at 1 µM:
{"columns": ["compound", "Emax at 1 µM, %"],
 "data": [
  ["O=C1CCc2ccc(OCCCCN3CCN(c4cccc5ccoc45)CC3)nc2N1", 39],
  ["O=c1ncc2ccc(OCCCCN3CCN(c4cccc5c4OCCC5)CC3)nc2[nH]1 [Example E1′]", 12]
]}

A. O=C1CCc2ccc(OCCCCN3CCN(c4cccc5ncc(F)cc45)CC3)nc2N1
B. O=C1CCc2ccc(OCCCCN3CCN(c4cccc5cc[nH]c45)CC3)nc2N1
Request: Sort A and B by Emax at 1 µM descending and give the first. Respond using the label that marks the chosen record.
Result: A
(A: 20%, B: 6%)

These measurements were taken from patent US7160888B2.
